- Read-out: Pyruvate Dehydrogenase Kinase 4 (PDK4), PDK4 (gene 5166)
- test_name: LTEA_HepaRG_PDK4: Life Technologies and Expression Analysis (LTEA) Assay for Pyruvate Dehydrogenase Kinase 4 (PDK4) using HepaRG (AID 2283525)
- condition: mRNA level, 48 h; actives raise or lower the signal
- Experimental: LTEA_HepaRG is a cell based, multiplexed-readout assay that uses HepaRG, a human liver cell line, with measurements taken at 48 hours after chemical dosing on a 96-well plate.LTEA_HepaRG_PDK4 is one of 102 assay component(s) measured in the LTEA HepaRG cell culture assay. It is a marker of Diseases associated with PDK4 including Platelet Glycoprotein Iv Deficiency and Diabetes Mellitus, Noninsulin-Dependent.Data from the assay component LTEA_HepaRG_PDK4 was analyzed into 1 endpoint. […]
The source made the active and inactive calls. Rule for the calls: active = hit-call score of the fitted dose curve at least 0.9, where 1 is the maximum; inactive = score below 0.9.
Outcomes: y (active), n (inactive)

[
  {
    "compound": "Cc1[nH]c(=O)n(C(C)(C)C)c(=O)c1Cl",
    "qualitative_label": "n"
  },
  {
    "compound": "CC(C)(C)C(O)/C(=C\\c1ccc(Cl)cc1Cl)n1cncn1 (stereo unspecified)",
    "qualitative_label": "y"
  },
  {
    "compound": "CCCN(CCOc1c(Cl)cc(Cl)cc1Cl)C(=O)n1ccnc1",
    "qualitative_label": "y"
  },
  {
    "compound": "COc1nn(CSP(=S)(OC)OC)c(=O)s1",
    "qualitative_label": "n"
  },
  {
    "compound": "O=[N+]([O-])/N=C1\\NCCN1Cc1ccc(Cl)nc1",
    "qualitative_label": "y"
  },
  {
    "compound": "O=C(Nc1ccccc1)Nc1cnns1",
    "qualitative_label": "y"
  },
  {
    "compound": "CNC(=O)Oc1ccccc1OC(C)C",
    "qualitative_label": "n"
  },
  {
    "compound": "CN1CSC(=S)N(C)C1",
    "qualitative_label": "n"
  },
  {
    "compound": "O=S1OCC2C(CO1)C1(Cl)C(Cl)=C(Cl)C2(Cl)C1(Cl)Cl (stereo unspecified)",
    "qualitative_label": "n"
  },
  {
    "compound": "CNC(=O)Oc1cccc(N=CN(C)C)c1",
    "qualitative_label": "n"
  },
  {
    "compound": "CCc1ccc(C(=O)NN(C(=O)c2cc(C)cc(C)c2)C(C)(C)C)cc1",
    "qualitative_label": "n"
  }
]

Where do the numbers come from? From PubChem BioAssay (EPA / NIEHS).
